Target: T1, cMet-Fc fusion protein (extracellular domain of the cMet receptor expressed as an Fc-fusion protein) (human, UniProt P08581 25-932)
T1 construct: extracellular domain; also called soluble cMet-Fc-fusion protein; soluble cMet receptor; not shown: Fc part
T1 sequence (P08581 25-932): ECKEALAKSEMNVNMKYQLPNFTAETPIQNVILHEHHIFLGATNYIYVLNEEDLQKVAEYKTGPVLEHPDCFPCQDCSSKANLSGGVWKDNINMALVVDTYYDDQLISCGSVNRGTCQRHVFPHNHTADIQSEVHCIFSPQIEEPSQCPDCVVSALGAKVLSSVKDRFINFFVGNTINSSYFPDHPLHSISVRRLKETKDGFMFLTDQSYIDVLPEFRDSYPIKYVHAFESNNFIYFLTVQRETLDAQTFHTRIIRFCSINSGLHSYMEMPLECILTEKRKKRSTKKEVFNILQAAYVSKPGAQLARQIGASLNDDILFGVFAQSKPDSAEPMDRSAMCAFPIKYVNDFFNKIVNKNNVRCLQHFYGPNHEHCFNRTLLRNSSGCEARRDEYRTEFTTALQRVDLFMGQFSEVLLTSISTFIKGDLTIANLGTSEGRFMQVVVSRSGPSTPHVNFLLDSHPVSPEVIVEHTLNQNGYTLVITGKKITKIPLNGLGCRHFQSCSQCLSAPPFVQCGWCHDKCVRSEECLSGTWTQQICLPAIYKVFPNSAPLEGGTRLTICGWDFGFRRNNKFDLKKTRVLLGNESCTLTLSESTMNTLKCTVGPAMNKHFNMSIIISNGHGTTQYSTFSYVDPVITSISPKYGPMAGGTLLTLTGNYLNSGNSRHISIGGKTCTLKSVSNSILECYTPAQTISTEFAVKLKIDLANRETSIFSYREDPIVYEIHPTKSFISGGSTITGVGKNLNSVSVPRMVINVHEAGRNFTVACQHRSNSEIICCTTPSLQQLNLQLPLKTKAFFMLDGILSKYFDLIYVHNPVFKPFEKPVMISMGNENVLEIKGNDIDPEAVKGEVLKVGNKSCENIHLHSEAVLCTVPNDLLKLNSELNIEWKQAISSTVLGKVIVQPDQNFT
Experiment: phage ELISA, cMet-Fc vs TRAIL-Fc

binder: AGETTCLGWPTFVCVDYGT [548-E08 peptide-displaying phage (SEQ ID NO: 063)]
unit.of.measure: fold
Protein ELISA (fold over background): 5.3

binder: GSTKVCHEKWNQLFCHNQAP [549-G01 peptide-displaying phage (SEQ ID NO: 368)]
unit.of.measure: fold
Protein ELISA (fold over background): 7

binder: GSSARCDELINDFHSCLVMAP [445-E06 peptide-displaying phage (SEQ ID NO: 375)]
unit.of.measure: fold
Protein ELISA (fold over background): 4.3

binder: AGSWECTGPPSFHCQWYGT [551-G12 peptide-displaying phage (SEQ ID NO: 070)]
unit.of.measure: fold
Protein ELISA (fold over background): 3.9

binder: AQVEDMATVHFKFNPATHEVIW [524-H02 peptide-displaying phage (SEQ ID NO: 492)]
unit.of.measure: fold
Protein ELISA (fold over background): 3.2

binder: AQFMYEKEHYVMSISLPGLWFY [122-D07 peptide-displaying phage (SEQ ID NO: 486)]
unit.of.measure: fold
Protein ELISA (fold over background): 3

binder: GSELFCFYHHQGYEGCDVLAP [465-B07 peptide-displaying phage (SEQ ID NO: 385)]
unit.of.measure: fold
Protein ELISA (fold over background): 4.8
